biological target: HLA-DR2w2β2 (DRB5*0101) (human)
reported_metric: binding affinity ratio (IC50 of standard peptide / IC50 of test peptide)
// response body must contain only the number

# annotated cases, reported binding affinity ratio (IC50 of standard peptide / IC50 of test peptide) shown
VVILTDGIPDSIQDS (modifications not checked): -0.0006
CGVWDEWSPCSVTCG (modifications not checked): -0.0006

Continue with the next binder.
-- ask Return reported binding affinity ratio (IC50 of standard peptide / IC50 of test peptide); argument: AVPLAMKLIQQLNLN (modifications not checked)
-- reply -0.0006
